The values you see were collected from the supplement of paper PMC6555819.

- Test system: PPARg:RXRa 270nM:90nM, anti-RXR (NR concentration 270 nM, RXRa partner concentration 90 nM)
- test method notes: PBM binding z-score (relative to random genomic background probes); higher = stronger binding; sequences stand for … in GC…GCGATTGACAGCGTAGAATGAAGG
Kindly return 1 (yes) if reported PBM binding z-score is no lower than 3; return 0 (no) if it is lower.

// below: answered sequences
GCGACTGGGCCAAAGCAGGTTACCATAAGGTTGG : 0 (no)
ATCGAAAGGTCGGGGTGAGTATAGAGAAAGGGAA : 0 (no)
CAAACTAGGGCACAGAGGTCAAAGTCCGTGCGTA : 1 (yes)
GCAGACACGTGAAACGCAGGTAACTCAGGGTGGC : 0 (no)
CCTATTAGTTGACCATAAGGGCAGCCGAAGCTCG : 0 (no)

Pending sequence:
Exercise: Is reported PBM binding z-score greater than or equal to 3 here: "AATACAGGGTCATCGTAGGCTAGAGTACGCACAG"
Key: 1 (yes)
